// provenance: patent US7163952B2

Measurement Kind: melting point

{"Molecule": "C=CCN(Cc1ccc(C2CCCCC2)cc1)c1ccc(-c2csc(N(C)Cc3ccc(C(=O)O)cc3)n2)cc1 [Example 119]", "melting point": "139 to 141 °C"}

List melting point for every entry below, keeping the order given.
1. COCCN(c1ccc(C(=O)O)cc1)c1nc(-c2ccc(OCc3ccc(Cl)c(Cl)c3)cc2)cs1 [Example 99]
2. CN(Cc1ccc(C2CCOCC2)cc1)c1ccc(-c2csc(N(C)Cc3ccc(C(=O)O)cc3)n2)cc1 [Example 210]
3. CC(C)N(c1ccc(C(=O)O)cc1)c1nc(-c2ccc(OCc3ccc(Cl)c(Cl)c3)cc2)cs1 [Example 96]

1: 175 to 178 °C; 2: 225 to 227 °C; 3: 236 to 238 °C
